Form field: Activity (one value per entry).
# Tested system: UDP-N-acetylmuramoyl-tripeptide--D-alanyl-D-alanine ligase (Escherichia coli K-12) (UniProt P11880)
# Sequence (whole entry): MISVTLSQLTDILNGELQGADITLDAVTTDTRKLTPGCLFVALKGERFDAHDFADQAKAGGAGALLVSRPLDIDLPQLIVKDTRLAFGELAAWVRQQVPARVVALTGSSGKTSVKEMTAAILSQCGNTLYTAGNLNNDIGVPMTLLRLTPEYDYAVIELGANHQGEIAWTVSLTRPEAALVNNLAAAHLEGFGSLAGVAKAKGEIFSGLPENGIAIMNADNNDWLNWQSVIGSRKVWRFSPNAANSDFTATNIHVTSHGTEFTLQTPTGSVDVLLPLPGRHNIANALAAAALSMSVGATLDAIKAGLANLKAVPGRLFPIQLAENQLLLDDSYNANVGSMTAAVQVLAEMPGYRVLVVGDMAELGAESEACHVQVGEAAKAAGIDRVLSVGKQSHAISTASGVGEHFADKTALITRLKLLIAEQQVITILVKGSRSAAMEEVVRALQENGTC
# Procedure summary: Inhibition of Escherichia coli MurF assessed as residual enzyme activity at 250 uM after 15 mins in presence of 0.005% Triton X-114 by Malachite green assay
Output spec: scalar in %, unitless text.

Here's what some known entries look like.
[
  {
    "Smiles string": "O=C1NC(=S)N(c2ccc(F)cc2)C(=O)/C1=C\\c1ccc2c(c1)OCO2",
    "Activity / %": 81
  },
  {
    "Smiles string": "CCc1ccc(N2C(=O)/C(=C\\c3cc(C)n(C4CCCCC4)c3C)C(=O)NC2=S)cc1",
    "Activity / %": 75
  },
  {
    "Smiles string": "C/N=C1/S/C(=C/c2cc(C)n(-c3cc(C(=O)O)cc(C(=O)O)c3)c2C)C(=O)N1C",
    "Activity / %": 95
  }
]

Ask | Query Activity for "CCc1ccccc1N1C(=O)/C(=C\c2cc(C)n(-c3cc(C(=O)O)cc(C(=O)O)c3)c2C)C(=O)NC1=S"
Reply | 68

Ask | Answer with reported Activity of "Cc1cc(/C=C2/SC(=S)NC2=O)c(C)n1-c1cc(C(=O)O)cc(C(=O)O)c1"
Reply | 89

Ask | Supply Activity value. Item: "Cc1cc(/C=C2/S/C(=N/c3ccc(F)cc3)NC2=O)c(C)n1C"
Reply | 67

Ask | Name the recorded Activity of the compound listed here: "O=C1NC(=S)N(c2ccc(Cl)cc2)C(=O)/C1=C\c1cc2ccccc2[nH]1"
Reply | 20

Ask | Look up Activity of "Cc1cc(/C=C2/C(=O)NC(=S)N(c3ccccc3)C2=O)c(C)n1-c1cc(C(=O)O)cc(C(=O)O)c1" and report it.
Reply | 84

Ask | Give the value of Activity reported for the following: "O=C1NC(=S)N(c2ccc(Br)cc2)C(=O)/C1=C\c1ccc2c(c1)OCO2"
Reply | 95
